- measurementParameters: 343.2 K; 101.33 kPa; Liquid; Cone and plate viscometry
assayMetric: viscosity (mPa·s)
# value in mPa·s; strip the unit string

Determine from records and report viscosity for CC(O)C(=O)[O-].[NH3+]CCO (stereo not given) [2-hydroxyethylammonium lactate]
24.98

Answer with the recorded viscosity for the compound listed here: CC(=O)[O-].[NH3+]CCO [2-hydroxyethylammonium acetate]
29.04

Return the recorded viscosity value; entry: CC(=O)[O-].OCC[NH2+]CCO [2,2'-azanediylbis(ethanol) acetate]
38.65

Output measured viscosity for this item: CC(=O)[O-].C[NH+](CCO)CCO [N-methyldiethanolammonium acetate]
22.32

Item CC(O)C(=O)O.OCCNCCO [diethanolamine lactate] : provide viscosity
27.15

* * *

- procedureDetails: refractive index (Na D-line) (dimensionless)
- measurementParameters: 303.15 K; 101.33 kPa; Liquid; Standard Abbe refractometry
assayMetric: refractive index
# answer = number (no unit)

Report measured refractive index; entry is CC(O)C(=O)[O-].[NH3+]CCO (stereo not given) [2-hydroxyethylammonium lactate]
1.43658

Quote refractive index reported for CC(O)C(=O)O.OCCNCCO [diethanolamine lactate] please.
1.44109

Provide only the value of recorded refractive index for CC(=O)[O-].C[NH+](CCO)CCO [N-methyldiethanolammonium acetate]
1.43122

Input CC(=O)[O-].OCC[NH2+]CCO [2,2'-azanediylbis(ethanol) acetate] , output reported refractive index.
1.43238

Query refractive index for CC(=O)[O-].[NH3+]CCO [2-hydroxyethylammonium acetate]
1.43593

* * *

- procedureDetails: refractive index (Na D-line) (dimensionless)
- measurementParameters: 333.15 K; 101.33 kPa; Liquid; Standard Abbe refractometry
Numbers after ± are expanded uncertainties.
Task for the reader: assign each of the following compounds its reported refractive index.

Please supply the value of reported refractive index for the item CC(O)C(=O)[O-].[NH3+]CCO (stereo not given) [2-hydroxyethylammonium lactate]
1.43043 ± 0.05

Consider the compound CC(=O)[O-].[NH3+]CCO [2-hydroxyethylammonium acetate] . State its measured refractive index.
1.43164 ± 0.05

Fill in refractive index for record CC(O)C(=O)O.OCCNCCO [diethanolamine lactate]
1.43489 ± 0.05

Write down refractive index measured for item CC(=O)[O-].OCC[NH2+]CCO [2,2'-azanediylbis(ethanol) acetate]
1.42547 ± 0.05

Please list refractive index recorded for the compound CC(=O)[O-].C[NH+](CCO)CCO [N-methyldiethanolammonium acetate]
1.42462 ± 0.05

* * *

- measurementParameters: 323.15 K; 101.33 kPa; Liquid; Vibrating tube method
assayMetric: mass density (kg/m3)
Write the number in kg/m3 without appending the unit.

Note mass density for the compound shown: CC(O)C(=O)O.OCCNCCO [diethanolamine lactate]
1186.14

Quickly give me recorded mass density for CC(O)C(=O)[O-].[NH3+]CCO (stereo not given) [2-hydroxyethylammonium lactate]
1185.78

Entry CC(=O)[O-].C[NH+](CCO)CCO [N-methyldiethanolammonium acetate] needs its mass density filled in; supply it.
1118.75

State, in one line, measured mass density of CC(=O)[O-].OCC[NH2+]CCO [2,2'-azanediylbis(ethanol) acetate]
1153.96

Annotate the compound CC(=O)[O-].[NH3+]CCO [2-hydroxyethylammonium acetate] with its measured mass density.
1132.52

* * *

- measurementParameters: 313.15 K; 101.33 kPa; Liquid; Vibrating tube method
± gives the expanded uncertainty stated by the source.
assayMetric: mass density
Enter the number, and then the unit.

Look up mass density of CC(=O)[O-].[NH3+]CCO [2-hydroxyethylammonium acetate] and report it.
1138.02 ± 11 kg/m3

Please indicate mass density recorded for CC(=O)[O-].OCC[NH2+]CCO [2,2'-azanediylbis(ethanol) acetate]
1160.12 ± 11 kg/m3

Return mass density (reported value) for this compound: CC(O)C(=O)[O-].[NH3+]CCO (stereo not given) [2-hydroxyethylammonium lactate]
1191.86 ± 11 kg/m3

For the compound CC(=O)[O-].C[NH+](CCO)CCO [N-methyldiethanolammonium acetate] , give its measured mass density value.
1125.85 ± 11 kg/m3

Tell me mass density reported for CC(O)C(=O)O.OCCNCCO [diethanolamine lactate]
1192.47 ± 11 kg/m3

* * *

- procedureDetails: refractive index (Na D-line) (dimensionless)
- measurementParameters: 328.15 K; 101.33 kPa; Liquid; Standard Abbe refractometry
assayMetric: refractive index
Output: the number by itself.

Specify refractive index for CC(=O)[O-].[NH3+]CCO [2-hydroxyethylammonium acetate] and stop.
1.43223

Check the records and state refractive index for CC(=O)[O-].OCC[NH2+]CCO [2,2'-azanediylbis(ethanol) acetate]
1.42673

Give a short answer stating reported refractive index for CC(=O)[O-].C[NH+](CCO)CCO [N-methyldiethanolammonium acetate] .
1.42583

Recall and state the measured refractive index for CC(O)C(=O)O.OCCNCCO [diethanolamine lactate] .
1.43642

Determine its reported refractive index: CC(O)C(=O)[O-].[NH3+]CCO (stereo not given) [2-hydroxyethylammonium lactate]
1.43148

* * *

Provide the reported mass density of each item.
- measurementParameters: 353.15 K; 101.33 kPa; Liquid; Vibrating tube method
Your answer should be a plain number; it is taken to be in kg/m3.

Tell me measured mass density for CC(O)C(=O)[O-].[NH3+]CCO (stereo not given) [2-hydroxyethylammonium lactate] please.
1167.19

Determine its reported mass density: CC(=O)[O-].OCC[NH2+]CCO [2,2'-azanediylbis(ethanol) acetate]
1134.66

Using the record for CC(O)C(=O)O.OCCNCCO [diethanolamine lactate] , state its measured mass density.
1166.69

Supply reported mass density belonging to this molecule: CC(=O)[O-].[NH3+]CCO [2-hydroxyethylammonium acetate]
1115.47

Answer with the recorded mass density for the molecule listed here: CC(=O)[O-].C[NH+](CCO)CCO [N-methyldiethanolammonium acetate]
1096.28

* * *

- procedureDetails: refractive index (Na D-line) (dimensionless)
- measurementParameters: 298.15 K; 101.33 kPa; Liquid; Standard Abbe refractometry
assayMetric: refractive index
# print the numeric value only

Please look at this molecule and report its refractive index: CC(=O)[O-].C[NH+](CCO)CCO [N-methyldiethanolammonium acetate]
1.43215

Please indicate refractive index recorded for CC(=O)[O-].[NH3+]CCO [2-hydroxyethylammonium acetate]
1.43682

Fill in reported refractive index for this entry: CC(O)C(=O)O.OCCNCCO [diethanolamine lactate]
1.44142

Provide refractive index value for the following molecule: CC(=O)[O-].OCC[NH2+]CCO [2,2'-azanediylbis(ethanol) acetate]
1.43338

Consider the molecule CC(O)C(=O)[O-].[NH3+]CCO (stereo not given) [2-hydroxyethylammonium lactate] and give its recorded refractive index.
1.43758

* * *

- measurementParameters: 323.2 K; 101.33 kPa; Liquid; Cone and plate viscometry
Numbers after ± are expanded uncertainties.
For each of the compounds below, state its viscosity.
The number alone won't do; follow it with the unit.

Provide only the value of recorded viscosity for CC(=O)[O-].C[NH+](CCO)CCO [N-methyldiethanolammonium acetate]
50.96 ± 10 mPa·s

Name the recorded viscosity of the compound listed here: CC(=O)[O-].[NH3+]CCO [2-hydroxyethylammonium acetate]
70.68 ± 14 mPa·s

Read off the recorded viscosity for CC(=O)[O-].OCC[NH2+]CCO [2,2'-azanediylbis(ethanol) acetate]
101.06 ± 20 mPa·s

Quote viscosity reported for CC(O)C(=O)[O-].[NH3+]CCO (stereo not given) [2-hydroxyethylammonium lactate] please.
60.18 ± 12 mPa·s

Note viscosity for the compound shown: CC(O)C(=O)O.OCCNCCO [diethanolamine lactate]
65.45 ± 13 mPa·s

* * *

- measurementParameters: 348.2 K; 101.33 kPa; Liquid; Cone and plate viscometry
viscosity less than 20 mPa·s is fulfilled; viscosity greater than or equal to 20 mPa·s is not fulfilled.

# check: viscosity < 20 mPa·s for CC(=O)[O-].OCC[NH2+]CCO [2,2'-azanediylbis(ethanol) acetate]
not fulfilled

Answer whether the compound CC(O)C(=O)[O-].[NH3+]CCO (stereo not given) [2-hydroxyethylammonium lactate] has viscosity strictly less than 20 mPa·s
not fulfilled

Does the reported viscosity of the following compound sit strictly below 20 mPa·s? CC(=O)[O-].C[NH+](CCO)CCO [N-methyldiethanolammonium acetate]
fulfilled

Bench note: check whether CC(O)C(=O)O.OCCNCCO [diethanolamine lactate] shows viscosity below 20 mPa·s
not fulfilled

Please determine if CC(=O)[O-].[NH3+]CCO [2-hydroxyethylammonium acetate] is below 20 mPa·s in terms of viscosity.
not fulfilled

* * *

- measurementParameters: 343.15 K; 101.33 kPa; Liquid; Vibrating tube method
Give measured mass density for each item. Keep answers brief.
Reply numerically in kg/m3, unit not repeated.

Check the records and state mass density for CC(=O)[O-].C[NH+](CCO)CCO [N-methyldiethanolammonium acetate]
1103.98

Tell us which mass density value is on record for CC(=O)[O-].OCC[NH2+]CCO [2,2'-azanediylbis(ethanol) acetate]
1141.22

Output measured mass density for this item: CC(O)C(=O)[O-].[NH3+]CCO (centres undefined) [2-hydroxyethylammonium lactate]
1173.45

// Input: CC(=O)[O-].[NH3+]CCO [2-hydroxyethylammonium acetate] . Output its mass density only.
1121.26
